# Test system: vancomycin-resistant E. faecium
# Procedure Text: VRE nutrient utilization protocol: nitrogen sources, leave-one-out
# Assay type: cell-based, Enterococcus faecium
# Experimental Context: aerobic; leave-one-out from nitrogen source mixture in minimal medium
Observation Type: Use as nitrogen source to support E. faecium growth

CC(C)[C@H](N)C(=O)O
could use
NCC(=O)O
could use
NCCCC[C@H](N)C(=O)O
could use

====

# Test system: NDM-1 Klebsiella pneumoniae
# Procedure Text: Carbon utilisation assay
# Assay type: cell-based
# Experimental Context: anaerobic; M9 minimal medium, 0.5% (w/v) carbon source
Observation Type: Use as sole carbon source to support K. pneumoniae growth

For orientation, consider the following solved cases.
O=C(CO)[C@@H](O)[C@H](O)[C@H](O)CO
could use
O=C[C@H](O)[C@@H](O)[C@@H](O)[C@H](O)CO
could use
OC[C@H]1O[C@H](O[C@H]2O[C@H](CO)[C@@H](O)[C@H](O)[C@H]2O)[C@H](O)[C@@H](O)[C@@H]1O
could use
CC(=O)N[C@H]1C(O)O[C@H](CO)[C@@H](O)[C@@H]1O (some centres unmarked)
could use
O=C[C@H](O)[C@@H](O)[C@H](O)CO
could use
OC[C@H]1O[C@H](O[C@H]2[C@H](O)[C@@H](O)[C@H](O)O[C@@H]2CO)[C@H](O)[C@@H](O)[C@@H]1O
could use
O=C[C@H](O)[C@@H](O)[C@@H](O)CO
could use

Q. Record lookup: for NDM-1 Klebsiella pneumoniae, what Use as sole carbon source to support K. pneumoniae growth belongs to `OC[C@H]1O[C@@](CO)(O[C@H]2O[C@H](CO)[C@@H](O)[C@H](O)[C@H]2O)[C@@H](O)[C@@H]1O` ?
A. could use

====

# Test system: NDM-1 Klebsiella pneumoniae
# Procedure Text: Nutrient preference assay (nutrient mixture)
# Format: cell-based
# Experimental Context: aerobic; M9 with […] of each nutrient, up to 24 hours
Observation Type: Utilisation of nutrient by K. pneumoniae from nutrient mixture (1H-NMR)

NCCCC[C@H](N)C(=O)O
high utilisation
C[C@@H](O)[C@H](N)C(=O)O
high utilisation
C[C@H](O)[C@@H](O)[C@@H](O)[C@H](O)C=O
not utilised
N[C@@H](Cc1c[nH]c2ccccc12)C(=O)O
not utilised

====

# Test system: NDM-1 Enterobacter cloacae
# Procedure Text: Nitrogen utilisation assay
# Type: cell-based
# Experimental Context: aerobic; M9 minimal medium with glucose, 0.1% (w/v) nitrogen source
Observation Type: Use as sole nitrogen source to support E. cloacae growth

Worked examples follow.
N[C@@H](CCC(=O)O)C(=O)O [glutamate, L-glutamate]
able to grow
CC[C@H](C)[C@H](N)C(=O)O
able to grow
NCC(=O)O
able to grow
CC(C)C[C@H](N)C(=O)O
able to grow
C[C@H](N)C(=O)O
able to grow

Q. Any idea what its Use as sole nitrogen source to support E. cloacae growth is? The compound is `C[C@@H](O)[C@H](N)C(=O)O`
A. able to grow

Q. Consider the compound `O=c1cc[nH]c(=O)[nH]1` and give its measured Use as sole nitrogen source to support E. cloacae growth.
A. able to grow

Q. Could you share which Use as sole nitrogen source to support E. cloacae growth value was measured for `O=C(O)[C@@H]1CCCN1` ?
A. able to grow

Q. Entry `CSCC[C@H](N)C(=O)O` has what Use as sole nitrogen source to support E. cloacae growth?
A. able to grow

Q. # get_value(readout='Use as sole nitrogen source to support E. cloacae growth', item= `NCCCC[C@H](N)C(=O)O` )
A. able to grow

Q. Quick one: Use as sole nitrogen source to support E. cloacae growth of `N[C@@H](Cc1ccccc1)C(=O)O` ?
A. able to grow
